dCas9 with SSAP activity (normalized) reference
Test system: gene editing with dCas9
Test: Screen of 322 new SSAP proteins, gene editing activity with dCas9 (Table 5)
Type: cell-based
Settings: normalized
I only need the number, thanks.

Solved cases below.
SSAP_83: SEQ ID NO: 252 (protein) TLQAVCPTQDKAVESQLDQTKFELIKRTICKGTTDDEFQLFIHACKRTGLDPFMRQIFAVKRWDSAERREVMTIQTGIDGYRLIADRTGRYAPGRDAEFGYDAHGGLRWAKAYVKKMTPDGHWHEISATAFWTEYVQTTKDGRPTVFWMKKGHVMLSKCAEALALRKTFPAELSGIYTQEEMAQTMSLPDTKGDSQTIGSDKAYEIERSIDNDPEFKTQLLTRLQRAFGCKSFSDLPQDQFKNVKKVIENHQIKEKIA; −1.391
SSAP_313: SEQ ID NO: 482; Pedobacter nototheniae (protein, listed as Pedobacter nototheniae) STEQSQQQTAARVPAKFQEGTVDSILKRVSDFQNTGELVLPANYIPENAVRAAWLMLMETTDRNDKPAIEVCTKESIANAFLEMVTKGLSVVKKQCYFVVYGNKLSLEDSYIGKIAIAKREAGVKEVNAVTIYEGDIFKYENDIETGRKRILEHKQELKNINPDKIVGA; −1.301
SSAP_11: SEQ ID NO: 180; Bet Lactococcus phage phiLC3 (protein, listed as Lactococcus lactis) ANEIDIYDAKNLNTATVKKFLKGGGQASDEELAMLLAISRNQNMNPFMKEVYFIKYGSAAAQIVVSRDFYRKRAFQNPNFAGIEVGVIVLNKDGVLEHNEGTFKTKDQELVGAWARVHLKNTEIPVYVAVSYDEYVQMKNGQPNSMWTNKPCTMLGKVAESQALRMAFPAEFSGTYGEEEYPEPEKEPREVNGVKEPDRAQIESFDKENYAARKIEELKEKAQPQKEFVEEIGEAIDEITAEDF; −0.866
SSAP_136: SEQ ID NO: 305; Corynebacterium striatum (protein, listed as Corynebacterium striatum) GTNLEQRMAANNAPAKQNRPVTLADQIRSMESQFQLAMPKGMEAQQLVRDALTCLRQTPKLAECTPQSVLGGLMTCSQLGLRPGVLGHAYLLPFWDRKQGGMVAQLVVGYRGLVELAHRSGQIQSLIARTVYENDHFDVDYGLDDKLVHKPCMNGPKGNPIAYYAVAKFTTGGHSFIVMSKDEMLAYRDEFAKAKNKQGEVFGPWADNFDAMAHKTCVRQLAKWMPSSTDLDRGIAADETVRVDLSESALDYPQHVDGEVVDSKPAEDEAA; −0.952
SSAP_135: SEQ ID NO: 304; Amycolatopsis arida (protein, listed as Amycolatopsis arida) HGTALNPERFTRVALTVIRQSADLQRCRPESLLGALMTSAQLGLEPGPLGEAYLVPYGDQVTFIPGYRGLIKLAWQSGQLRHISARVVHEGDRFSYSYGLHPDLIHQPTRGDRGPITDVYAAATLIDGGVEFEVLDVATVETIRARSRAGRKGPWVTDWEAMARKTAIRQLAKWLPMATVMSRAIAAEGTVRTDLDADALDDLTADPGPEVLDADPAWDGPEPPGDQARNQEPTTQGDA; −2.544
SSAP_21: SEQ ID NO: 190; Cellulosilyticum lentocellum (protein, listed as Cellulosilyticum lentocellum) SDKKELVLKETHSRLNQLLATKMEAMPKDFNQTRFLQNCMTVLQDTKGIENCHPVSIARTLLKGAFLGLDFFQRECYAIPYGGELQFQTDYKGETKMAKKYSIRDIKDIYAKVVRKGDEFKEEIVAGQQVVDFKPLPFNDAEIIGAFAVVLYQDGGMEYETMSTKQIEGIRDNFSKMKNGLMWTKTPEEAYKKTVLRRLTKKIEKDFASIDQAKAYEESSDMQFKQDEQKQDAKDPFADAVDVEFTEETEGQVRLDGEADGAK; −0.537
SSAP_315: SEQ ID NO: 484; Pseudoalteromonas spongiae (protein, listed as Pseudoalteromonas spongiae) NKFQHLQTELSSQLLSTKERFNELNNKNNLKVNFEEEYNFFYHLVTSSFYNINGIATCTFSSLKEAFLNIAKYGLSINPKLNLCYIRTEQSCAQANVNIAVYDFGYKGLLKLITRTGKVKIVTADVFYENDNFEFRGTREPVKHSTKTLSAAARGAMAGGYCSSELVAGGVVTTIMTPEELREIESICQSTGNEAWNSVFIDELRRKTLIKRHWKTLMQVIEEQNLSVPIEETYQCDFANGGY; −2.608

From here, focus on the item given below.
Which dCas9 with SSAP activity (normalized) value belongs to SSAP_133: SEQ ID NO: 302; Lacrimispora celerecrescens (protein, listed as Lacrimispora celerecrescens) SDVKQELEKRAAGGGSQSQSVKLTKNMTIVDMVKALEPEIKRALPSILTPERFTRMALSAINNTPKLGECTPMSFIAALMNAAQLGLEPNTPLGQAYLIPYKNKGVLECQFQLGYRGLIDLAYRNDRMQSIEAQVVYENDEFSYELGLHPSLTHRPSFDEPGEIRAFYAIFRLDNGGFRFEVMSKSYVDAYATKYSKAFTSDFSPWKNNYEGMAKKTVIKQLLKYAPIKSDFQKAITLDETVKTQLSIDMSEIRNECLPDTSENSEVA ?
−0.658
